molecular target: WDR5 (Homo sapiens (Human), UniProt P61964); assay: TR-FRET binding assay (displacement of 10mer-Thr-FAM probe from WDR5); details: read-out: Ki for Inhibition of WDR5 by TR-FRET assay
pKi: −log10 of the molar value.
measurement-type: pKi

>  <compound>
Cn1cc(-c2cc(CN3CCSC3=N)cc(C(=O)N[C@H](c3ccc(Cl)c(Cl)c3)C3CC3)c2)c(C(F)(F)F)n1 [Example 310]

>  <pKi>
> 10.00

$$$$

The value of pKi measured for the compound Cc1cc([C@@H](NC(=O)c2cc(CN3CCSC3=N)cc(-c3cn(C)nc3C(F)(F)F)c2)C2CC2)ncc1F [Example 326] turned out to be > 10.00

Quick note, pKi for Cc1cc([C@H](C)NC(=O)c2cc(Cn3ccn(C)c3=N)cc(OC(F)(F)F)c2)ccc1F [Example 170] landed at 9.66

Just so you know, measured pKi for CCn1cc(-c2cc(CN3CCOC3=N)cc(C(=O)NCC3CCOCC3)c2)c(C(F)(F)F)n1 [Example 288] came out at 8.06

// sample CCn1cc(-c2cc(Cn3ccoc3=N)cc(C(=O)NCc3ccc(F)c(C)c3)c2)c(C(F)(F)F)n1 [Example 294] , its pKi was > 10.00

Value of pKi reported for the compound CCn1cc(-c2cc(CN3CCOC3=N)cc(C(=O)NCc3ccc(F)c(C)c3)c2)c(C(F)(F)F)n1 [Example 295] is > 10.00

Measured pKi, CC(=O)/N=c1\n(C)ccn1Cc1cc(C(=O)NCc2ccc(Cl)c(Cl)c2)cc(-c2ccc(F)nc2C)c1 [Example 121] : < 7.48
